- SUBJECT_OF_TEST: T1, HLA-A*02:01 (human)
- T1 construct: monomers captured on streptavidin plates; also called MHC class I
- PROCEDURE_SUMMARY: UV peptide exchange ELISA
- Description: Candidate peptides for T cell based therapies according to the present invention were further tested for their MHC binding capacity (affinity). The individual peptide-MHC complexes were produced by UV-ligand exchange, where a UV-sensitive peptide is cleaved upon UV-irradiation, and exchanged with the peptide of interest as analyzed. Only peptide candidates that can effectively bind and stabilize the peptide-receptive MHC molecules prevent dissociation of the MHC complexes. […]
READOUT_TYPE: peptide exchange yield

FLLDSSASV; 20 to 50%

State, in one line, measured peptide exchange yield of LLAVIGGLVYL
50 to 75%

State, in one line, measured peptide exchange yield of IILSILEQA
≥ 75%

State, in one line, measured peptide exchange yield of FQLDPSSGVLVTV
50 to 75%

State, in one line, measured peptide exchange yield of LLINSVFHV
50 to 75%

State, in one line, measured peptide exchange yield of KISPVTFSV
50 to 75%
